Readings of z-score for the listed compounds
- experiment: blockers of DNA damage checkpoint Chk1 activation – imaging, HeLa, hydroxyurea, phospho-Chk1 antibody, percent positive cells, primary screen (AID 1186)
- experimental setup: hydroxyurea-induced phospho-Chk1 immunofluorescence imaging, higher = more signal
The source made the active and inactive calls. How the calls were made is not given here.
experimental readout: z-score

>  <compound>
CC(C)=C1C(=O)C(c2ccccc2)=C2CN3C(=O)N(CCc4ccccc4)C(=O)[C@]3(C)[C@H]21

>  <reported value>
-0.0061 (inactive)

$$$$
>  <compound>
CC(C)C(CO)N1C(=O)[C@@H]2C3C(=O)OCCC/C=C\[C@H]3OC23C=CCN(Cc2ccccc2)C(=O)[C@@H]13 (stereo partly drawn)

>  <reported value>
-0.932 (inactive)

$$$$
>  <compound>
COC(=O)[C@]1(CCC(=O)OC(C)(C)C)N=C(c2ccc(OCCCO)cc2)O[C@@H]1c1ccccc1N=[N+]=[N-]

>  <reported value>
0.0989 (inactive)

$$$$
>  <compound>
COCCn1c(C(=O)N(C)C)cc2c1C[C@H]1CN(C(=O)c3ccccc3)[C@@](Cc3ccc(OC)cc3)(C(=O)OC)[C@@H]21

>  <reported value>
0.688 (inactive)

$$$$
>  <compound>
CN(C)CCCC[C@@H]1NC(=O)[C@@H]2C[C@H](C(=O)NCCCCCN)[C@H](c3cccc(OCCO)c3)N2C1=O

>  <reported value>
-0.523 (inactive)

$$$$
>  <compound>
CCCC=C(CCC)[C@@H](NC(=O)c1ccc(C(F)(F)F)cc1)c1ccc(C(F)(F)F)cc1

>  <reported value>
-0.136 (inactive)

$$$$
>  <compound>
CCCNC(=O)[C@@]1(Sc2ccc(C)cc2)CC(=O)N(Cc2ccccc2Cl)[C@@H]1c1ccc(CO)cc1I

>  <reported value>
0.242 (inactive)

$$$$
>  <compound>
CC(C)(C)N1CC=CC23O[C@@H]4C=CCCOC(=O)C4[C@H]2C(=O)N(CCCCCCO)[C@@H]3C1=O (stereo partly drawn)

>  <reported value>
-0.327 (inactive)

$$$$

Where do these numbers come from? They come from PubChem BioAssay.
